# test.system: T1, human Galectin-3 (Gal3), full-length recombinant (human, UniProt P17931 2-250)
# T1 construct: treated here as one molecule; also called hGAL3; hGal3
# T1 sequence (P17931 2-250 limits assumed): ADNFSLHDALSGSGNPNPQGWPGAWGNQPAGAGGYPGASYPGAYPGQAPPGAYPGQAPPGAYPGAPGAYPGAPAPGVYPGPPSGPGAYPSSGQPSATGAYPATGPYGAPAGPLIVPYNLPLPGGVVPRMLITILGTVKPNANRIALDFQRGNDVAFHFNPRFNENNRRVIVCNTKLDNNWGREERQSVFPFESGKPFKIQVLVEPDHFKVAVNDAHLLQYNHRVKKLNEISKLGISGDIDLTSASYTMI
# test.details: blocking ELISA, Gal3 coated, biotin-TLR4
assay.endpoint: % blocking of Gal3-TLR4 binding

Would you please look over these solved cases?
[
  {
    "binder": "F846C.1F5 (antibody, human IgG4 S228P, kappa, V domains shown, also called 846.1F5) VH: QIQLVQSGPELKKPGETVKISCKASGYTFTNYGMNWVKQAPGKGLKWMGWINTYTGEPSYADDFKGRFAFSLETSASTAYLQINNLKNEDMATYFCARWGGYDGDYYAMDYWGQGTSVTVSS VL: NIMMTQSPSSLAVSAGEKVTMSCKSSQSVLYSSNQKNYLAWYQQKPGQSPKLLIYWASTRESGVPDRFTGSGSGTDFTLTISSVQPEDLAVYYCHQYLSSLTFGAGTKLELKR",
    "% blocking of Gal3-TLR4 binding": "> 90%"
  },
  {
    "binder": "F846C.2H3 (antibody, human IgG4 S228P, kappa, V domains shown, also called 846.2H3) VH: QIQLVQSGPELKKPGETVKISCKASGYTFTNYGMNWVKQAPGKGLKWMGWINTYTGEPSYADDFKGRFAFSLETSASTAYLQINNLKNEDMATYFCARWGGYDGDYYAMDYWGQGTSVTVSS VL: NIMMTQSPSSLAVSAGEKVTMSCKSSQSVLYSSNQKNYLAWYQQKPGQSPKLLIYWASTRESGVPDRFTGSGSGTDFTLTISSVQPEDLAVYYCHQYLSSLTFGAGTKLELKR",
    "% blocking of Gal3-TLR4 binding": "> 90%"
  }
]

We now examine a further binder.
Task: Could you tell me which % blocking of Gal3-TLR4 binding is on file for F846C.1B2 (antibody, human IgG4 S228P, kappa, V domains shown, also called 846.1B2) VH: QIQLVQSGPELKKPGETVKISCKASGYTFTNYGMNWVKQAPGKGLKWMGWINTYTGEPSYADDFKGRFAFSLETSASTAYLQINNLKNEDMATYFCARWGGYAGDYYAMDFWGQGTSVTVSS VL: NIWLTQSPSSLAVSAGEMVTMTCKSSQSVLYSSNQKNYLAWYQQKPGQSPKLLIYWASTRESGVPDRFTGSGSGTDFSLTISSVQAEDLAVYYCHQYLSSLTFGAGTKLELKR ?
Result: > 90%
